The origin of these recorded values is patent US20180170941A1.

assayed-target: α5β3γ2 GABAA receptors (Ltk cell membranes) (Homo sapiens, UniProt P18507+P31644)
Construct: membranes
Sequence (P31644 32-462): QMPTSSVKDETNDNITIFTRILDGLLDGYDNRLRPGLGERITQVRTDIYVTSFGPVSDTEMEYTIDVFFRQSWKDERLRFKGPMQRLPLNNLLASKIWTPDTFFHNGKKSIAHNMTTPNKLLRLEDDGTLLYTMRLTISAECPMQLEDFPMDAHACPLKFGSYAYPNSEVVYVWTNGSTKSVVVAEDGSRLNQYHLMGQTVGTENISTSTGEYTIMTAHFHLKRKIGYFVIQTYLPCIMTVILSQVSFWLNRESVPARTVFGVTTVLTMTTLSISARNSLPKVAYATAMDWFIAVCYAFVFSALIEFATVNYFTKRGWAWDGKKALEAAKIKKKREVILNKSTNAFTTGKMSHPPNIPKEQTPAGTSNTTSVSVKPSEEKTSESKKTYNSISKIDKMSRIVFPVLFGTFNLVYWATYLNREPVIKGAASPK
Sequence (P28472 26-473 partner): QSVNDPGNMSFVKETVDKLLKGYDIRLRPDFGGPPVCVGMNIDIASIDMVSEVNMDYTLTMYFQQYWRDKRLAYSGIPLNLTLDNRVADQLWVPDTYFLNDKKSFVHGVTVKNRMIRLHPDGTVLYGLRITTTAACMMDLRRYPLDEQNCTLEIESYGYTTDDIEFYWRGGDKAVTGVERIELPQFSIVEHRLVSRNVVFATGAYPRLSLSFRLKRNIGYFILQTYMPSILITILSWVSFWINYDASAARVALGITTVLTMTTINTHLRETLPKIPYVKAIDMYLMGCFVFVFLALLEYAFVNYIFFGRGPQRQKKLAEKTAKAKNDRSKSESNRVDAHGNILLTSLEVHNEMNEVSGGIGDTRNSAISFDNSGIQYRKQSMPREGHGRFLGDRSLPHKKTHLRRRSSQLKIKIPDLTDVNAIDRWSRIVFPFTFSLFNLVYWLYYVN
Sequence (P18507 40-475): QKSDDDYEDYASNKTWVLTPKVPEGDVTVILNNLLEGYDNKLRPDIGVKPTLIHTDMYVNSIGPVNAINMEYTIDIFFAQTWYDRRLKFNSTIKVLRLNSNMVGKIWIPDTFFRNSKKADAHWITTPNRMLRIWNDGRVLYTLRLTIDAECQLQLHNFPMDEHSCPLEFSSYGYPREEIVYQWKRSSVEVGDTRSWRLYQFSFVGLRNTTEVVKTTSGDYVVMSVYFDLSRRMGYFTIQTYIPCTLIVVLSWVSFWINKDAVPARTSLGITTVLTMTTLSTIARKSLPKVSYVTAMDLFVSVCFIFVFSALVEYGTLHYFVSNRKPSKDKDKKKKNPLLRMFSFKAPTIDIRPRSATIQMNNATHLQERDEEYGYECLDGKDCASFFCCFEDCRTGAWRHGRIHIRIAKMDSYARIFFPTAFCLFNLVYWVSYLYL
test-summary: Binding activity of test compounds on GABAAR: inhibition of [3H]Ro15-1788 binding
experimental-conditions: GABA α5 Binding Ki Values, inhibition of [3H]Ro15-1788 binding; reported as ranges
quantity-measured: Ki

Examples from the recorded data:
Request: Report value: Ki, system: α5β3γ2 GABAA receptors (Ltk cell membranes) (Homo sapiens, UniProt P18507+P31644), molecule: COc1ccc2c(c1)-c1nnc(COc3ccc(F)cc3)n1Cc1c(C#N)ncn1-2 [Compound 191]
Result: 100 to 1000 nM

Request: Specify Ki for COc1ccc2c(c1)-c1nnc(COc3ccc(F)cc3)n1Cc1c(-c3noc(C(C)C)n3)ncn1-2 [Compound 172] , system α5β3γ2 GABAA receptors (Ltk cell membranes) (Homo sapiens, UniProt P18507+P31644).
Result: < 100 nM

Request: Find Ki for C#Cc1ncn2c1Cn1c(COCc3ccccc3)nnc1-c1cc(Cl)ccc1-2 [Compound 351] on α5β3γ2 GABAA receptors (Ltk cell membranes) (Homo sapiens, UniProt P18507+P31644) and write it down.
Result: < 100 nM

Request: Answer briefly: Ki recorded on α5β3γ2 GABAA receptors (Ltk cell membranes) (Homo sapiens, UniProt P18507+P31644) for CCOC(=O)c1ncn2c1Cc1c(Cc3ccccc3Cl)nnn1-c1cc(OC)ccc1-2 [Compound 108]
Result: < 100 nM

Request: Report its Ki with α5β3γ2 GABAA receptors (Ltk cell membranes) (Homo sapiens, UniProt P18507+P31644) as the test system: COCc1nnc2n1Cc1c(C3=N[C@@H](c4cccc(OC)c4)CO3)ncn1-c1ccc(Cl)cc1-2 [Compound 333]
Result: < 100 nM

Report Ki for each item below.
1. C#Cc1ccc2c(c1)-c1nnc(COC)n1Cc1c(C3=N[C@@H](C(C)C)CO3)ncn1-2 [Compound 384]
2. CCOCc1nnc2n1Cc1c(-c3nc(C(C)C)no3)ncn1-c1ccc(Cl)cc1-2 [Compound 254]
3. Cc1nnn2c1Cc1c(-c3ncon3)ncn1-c1ccc(F)cc1-2 [Compound 151]
4. COCc1nnc2n1Cc1c(-c3nc(C)no3)ncn1-c1ccc(C(F)(F)F)cc1-2 [Compound 459]

Result:
["100 to 1000 nM", "< 100 nM", "< 100 nM", "< 100 nM"]
